Entry source: ChEMBL document CHEMBL3286100

Recorded below: pIC50, system Beta-glucuronidase (Homo sapiens, UniProt P08236).
Please treat pIC50 as minus the base-10 logarithm of the molar concentration.

Worked cases, answers included:
O=c1[nH]c(-c2ccc([N+](=O)[O-])cc2)nc2ccccc12 ... 4.70
COc1ccc(-c2nc3ccccc3c(=O)[nH]2)cc1O ... 5.55
CN(C)c1ccc(-c2nc(O)c3ccccc3n2)cc1 ... 5.26

For the next question, use this molecule.
Prompt line: Recall the reported pIC50 of COc1ccc(-c2nc3ccccc3c(=O)[nH]2)cc1 on Beta-glucuronidase (Homo sapiens, UniProt P08236) and write it down.
Sequence (P08236 whole entry): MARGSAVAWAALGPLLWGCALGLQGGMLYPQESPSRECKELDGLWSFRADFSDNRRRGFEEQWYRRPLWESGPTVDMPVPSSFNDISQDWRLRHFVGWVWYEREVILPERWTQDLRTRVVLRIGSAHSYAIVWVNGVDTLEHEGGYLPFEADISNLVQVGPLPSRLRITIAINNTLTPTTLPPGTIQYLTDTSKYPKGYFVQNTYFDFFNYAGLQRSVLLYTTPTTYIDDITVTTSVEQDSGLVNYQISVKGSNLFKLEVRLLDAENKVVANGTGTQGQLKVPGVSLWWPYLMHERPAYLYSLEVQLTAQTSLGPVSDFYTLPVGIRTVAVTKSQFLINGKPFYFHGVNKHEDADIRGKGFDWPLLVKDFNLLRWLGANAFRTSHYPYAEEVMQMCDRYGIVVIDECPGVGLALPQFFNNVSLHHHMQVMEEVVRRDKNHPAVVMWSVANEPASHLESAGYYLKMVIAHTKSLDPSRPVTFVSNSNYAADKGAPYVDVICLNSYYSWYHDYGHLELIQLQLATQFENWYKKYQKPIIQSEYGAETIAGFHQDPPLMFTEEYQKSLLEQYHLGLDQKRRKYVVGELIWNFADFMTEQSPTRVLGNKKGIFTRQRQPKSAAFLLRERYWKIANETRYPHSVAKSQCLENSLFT
Response line: 5.96
